- target or test system: GST-human KRas166 (G12V) GPPNHP (Homo sapiens, UniProt P01116, G12V)
- Construct: made in house; host or cells: E. coli C41(DE3)
- assay overview: KRas small-molecule screening by SPR (BIACORE T200)
- Assay type: binding
- experimental context: compound at final concentration of 100 uM; immobilised GST-KRAS166 (G12V) GPPNHP, GST reference channel
measurement type: SPR Response Units (Response Units)

Some solved entries appear below for comparison.
compound	target or test system	display unit	value
O=C(C1COc2ccc(OCc3ccccc3)cc2O1)N1CCN(Cc2ccncc2)CC1 (stereo not shown)	GST-human KRas166 (G12V) GPPNHP (Homo sapiens, UniProt P01116, G12V)	Response Units	79
O=C(NC[C@@H]1COc2ccc(OCc3ccccc3)cc2O1)C1CCNCC1	GST-human KRas166 (G12V) GPPNHP (Homo sapiens, UniProt P01116, G12V)	Response Units	22

[A] O=C(NCc1cccc(CN2CCOCC2)c1)C1COc2ccc(OCc3ccccc3)cc2O1 (stereo not shown)
[B] CN1CCN(Cc2ccc(C(=O)NC[C@@H]3COc4ccc(OCc5ccc(Cl)cc5)cc4O3)o2)CC1
Consider entries A and B . Which has the numerically lower SPR Response Units? Your answer should be the label of the entry you select. A
(A: 53 Response Units, B: 226 Response Units)
